Ki values by entry
target entity: Serine/threonine-protein kinase pim-1 (Homo sapiens)
Sequence (P11309 whole entry): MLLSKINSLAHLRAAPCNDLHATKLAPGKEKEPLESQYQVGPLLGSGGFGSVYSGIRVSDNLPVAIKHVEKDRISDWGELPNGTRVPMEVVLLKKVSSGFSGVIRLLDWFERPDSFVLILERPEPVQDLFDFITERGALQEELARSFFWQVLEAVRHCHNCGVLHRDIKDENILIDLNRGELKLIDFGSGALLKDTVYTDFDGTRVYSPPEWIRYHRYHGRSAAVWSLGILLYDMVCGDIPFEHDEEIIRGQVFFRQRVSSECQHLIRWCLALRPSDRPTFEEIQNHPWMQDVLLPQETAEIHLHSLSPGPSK
Format: functional
The source made the active and inactive calls.

smiles notation: CCCCNc1cc(-c2c[nH]c3ncccc23)ncn1
Ki: 0.158 µM (active)
--
smiles notation: c1ccc2c(c1)[nH]c1cnccc12
Ki: 6.31 µM (active)
--
smiles notation: COc1cc2ncc3c(N)nc4c(C)c(N)ccc4c3c2cc1OC
Ki: > 6.31 µM (inactive)
--
smiles notation: Cc1sc2[nH]c(=O)n3nc(-c4ccncc4)nc3c2c1C
Ki: 0.794 µM (active)
--
smiles notation: Nc1nnc2ccc(-c3ccccc3)cn12
Ki: 10 µM (active)

----------
target entity: UniProtKB P07900
Format: functional, organism-based
The source made the active and inactive calls.

molecule: O=C(C#Cc1ccccc1)c1ccc([N+](=O)[O-])cc1
AC50: 1.38 µM (active)
--
molecule: Cc1ccc(OCC(=O)NNC(=S)NC(=O)C(C)(C)C)c(Br)c1
AC50: 4.75 µM (active)
--
molecule: CC(C)c1c(O)ccc2c1CC[C@H]1C(C)(C)CCC[C@]21C [TOTAROL]
AC50: 3.79 µM (active)
--
molecule: O=C(/C=C/c1ccccc1)c1cc(Br)ccc(=O)c1O
AC50: 3.01 µM (active)
--
molecule: Cc1cc(/C=C2\SC(=S)N=C2O)c(C)n1-c1cccc(O)c1
AC50: 8.8 µM (active)
--
molecule: CC(C)N(CCC(=O)c1ccc2ccccc2c1)Cc1ccccc1
AC50: 9.38 µM (active)

----------
Reported values: AC50 for Cytochrome P450 2D6 (Homo sapiens), one per item.

smiles notation: COc1cccc(OC)c1C(=O)NC(=S)N1CCN(c2ccc(C(F)(F)F)cc2[N+](=O)[O-])CC1
AC50: 20 µM (inconclusive)

smiles notation: O=[N+]([O-])c1ccccc1N/N=C/c1c[nH]c2ccccc12
AC50: 20 µM (inconclusive)

smiles notation: CC[C@H](NC(C)C)[C@H](O)c1ccc(O)c2[nH]c(=O)ccc12
AC50: 31.6 µM (inconclusive)

smiles notation: COc1ccccc1-c1nccc(NCc2cccnc2)n1
AC50: 20 µM (inconclusive)

smiles notation: c1cc(-c2sc(-c3ccncc3)c(-c3ccncc3)c2-c2ccncc2)ccn1
AC50: 3.16 µM (inconclusive)

smiles notation: O=C(O)CN1CCN(Cc2ccccc2)C1=O
AC50: 15.8 µM (inconclusive)

smiles notation: CCOc1ccc(/C=C/C2=Cc3c(sc(NC(=O)CSc4nnc(N)[nH]4)c3C#N)C(C)(C)C2)cc1
AC50: 1.78 µM (inconclusive)

----------
Listed compounds paired with reported IC50
target entity: G-protein coupled receptor 55 (Homo sapiens)
Sequence (Q9Y2T6 whole entry): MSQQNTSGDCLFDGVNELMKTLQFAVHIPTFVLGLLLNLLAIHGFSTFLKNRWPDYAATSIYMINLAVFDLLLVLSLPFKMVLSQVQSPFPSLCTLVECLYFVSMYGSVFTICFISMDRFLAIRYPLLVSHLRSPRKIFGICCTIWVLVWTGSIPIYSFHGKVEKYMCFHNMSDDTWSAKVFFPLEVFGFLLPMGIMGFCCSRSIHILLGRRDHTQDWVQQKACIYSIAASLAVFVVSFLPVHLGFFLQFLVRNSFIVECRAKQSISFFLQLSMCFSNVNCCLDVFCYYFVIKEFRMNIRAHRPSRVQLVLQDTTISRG
protocol details: GPR55 antagonists blocking LPI-driven arrestin recruitment, primary screen, imaging, U2OS, beta-arrestin-GFP, LPI agonist (AID 2013);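 note: antagonist potency measured as reduced agonist-driven arrestin aggregation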
Assay type: functional
The source made the active and inactive calls.

smiles notation: CCOC(=O)c1c(CSC(=N)N)n(-c2ccccc2)c2cc(Br)c(OC(C)=O)cc12
IC50: 3230 nM (active)
//
smiles notation: O=C(O)c1ccc(Cl)c(NC(=S)NC(=O)c2cccc(COc3ccccc3)c2)c1
IC50: 2300 nM (active)
//
smiles notation: Cc1[nH]c2c(Br)cccc2c1[C@H]1[C@@H](CC#N)C1(C)C
IC50: 1490 nM (active)
//
smiles notation: Cc1nc(N2CCN(C(=O)c3ccco3)CC2)c2c3c(sc2n1)CCCC3
IC50: 1580 nM (active)
